I'd be grateful if you could share measured T/C for these entries.
# System: L1210 leukemia ip in BDF1 mice, survival T/C
# assay_notes: NCI In Vivo Anticancer Drug Screen. Data for tumor model L1210 Leukemia (intraperitoneal) in B6D2F1 (BDF1) mice
# cond: endpoint: mean survival time; dose: 12.5 mg/kg/injection; schedule: Q01DX009 (ip); vehicle: saline; higher = longer survival
Inconclusive results and toxic doses are left out.

# compound `Nc1nc(N)c2nc(CBr)cnc2n1` ; its T/C = 88 % of control

# compound `COCn1cnc2c(F)ncnc21` ; its T/C = 100 % of control

# compound N#CC1CC=CCC1 (stereo not given) ; its T/C = 121 % of control

# compound `CC1(C)N=C(N)N=C(N)N1c1ccc(CC(=O)Nc2cccc(S(=O)(=O)F)c2)cc1` ; its T/C = 103 % of control

# compound `O=C(OCCOCCN1CCCCC1)N1c2ccccc2Sc2cccnc21` ; its T/C = 107 % of control

# compound C[Se]c1ncnc2c(C3OC(CO)C(O)C3O)[nH]nc12 (stereo not given) ; its T/C = 91 % of control

# compound `CN(C)CC/C=C1/c2ccccc2COc2ccccc21` ; its T/C = 107 % of control

# compound CCOC(=O)C(C(C)=O)C(c1ccc([N+](=O)[O-])cc1)C(C(C)=O)C(=O)OCC (stereo not given) ; its T/C = 89 % of control

# compound `CS(C)=O.CS(C)=O.CS(C)=O.[Cl][Rh]([Cl])[Cl]` ; its T/C = 98 % of control

# compound CC(C)=CCC/C(C)=C/Cn1cnc2c(ncn2C2OC(CO)C(O)C2O)c1=O (stereo not given) ; its T/C = 100 % of control

----------
# Test system: L1210 leukemia ip in BDF1 mice, survival T/C
# assay_notes: NCI In Vivo Anticancer Drug Screen. Data for tumor model L1210 Leukemia (intraperitoneal) in B6D2F1 (BDF1) mice
# cond: endpoint: mean survival time; dose: 400.0 mg/kg/injection; schedule: Q01DX001 (ip); vehicle: carboxymethylcellulose (CMC); higher = longer survival
Toxic doses and inconclusive results are not listed.
measured_metric: T/C

# compound COC1C(CO)OC(n2cnc3c(N)ncnc32)C1O (stereo not given) ; its T/C = 98 % of control

# compound `Cc1ccc(S(=O)(=O)OC2C(C)(C)C(=O)C2(C)C)cc1` ; its T/C = 92 % of control

# compound `CC(C)c1ncc([N+](=O)[O-])n1C` ; its T/C = 101 % of control

# compound `CCOc1ccccc1/C=N/NC(=O)C(O)(c1ccccc1)c1ccccc1` ; its T/C = 97 % of control

# compound `Nc1cc(Cl)c(Cl)c(Cl)c1` ; its T/C = 91 % of control

# compound `Cc1ccc(S(=O)(=O)Nc2ccccc2N=Cc2ccc(N(CCCl)CCCl)cc2C)cc1` ; its T/C = 86 % of control

# compound `CCOP(=O)(Nc1ccc2c(c1)/C(=N/NC(N)=S)c1ccccc1-2)OCC` ; its T/C = 89 % of control

# compound `CC1(C)CC(=O)CC(=C2C(=O)NC(=O)NC2=O)C1` ; its T/C = 87 % of control

# compound `Cc1ccc2c3c(c(=O)oc2c1)CCCC3` ; its T/C = 108 % of control

# compound `O=C(CCl)N(O)c1ccc(/C=C/c2ccccc2)cc1` ; its T/C = 95 % of control

# compound `CCCCCCCCCCCCCC(=O)N(CCCC)CCCC` ; its T/C = 98 % of control

# compound `COc1ccc(-c2ccccc2)cc1SCCC(=O)O` ; its T/C = 95 % of control

# compound `CCc1ccc(N=Nc2ccc(-c3ccc(NC(C)=O)cc3)cc2)cc1` ; its T/C = 105 % of control

# compound `CCCCCCCCCCCCS` ; its T/C = 103 % of control

# compound `C=CCN(c1ccccc1)P(=O)(N1CC1)N1CC1` ; its T/C = 96 % of control

# compound CCOC(=O)N1C=Cc2ccccc2C1C#N (stereo not given) ; its T/C = 93 % of control

# compound `CC(=O)CSc1ccc(C(C)(C)C)cc1` ; its T/C = 105 % of control

# compound `CCS(=O)(=O)c1ccc(NC(=O)OC(C)(C)C)cc1` ; its T/C = 100 % of control

# compound `CSc1nc(N)c(N=Nc2ccc(S(=O)(=O)Nc3nccc(C)n3)cc2)c(=O)[nH]1` ; its T/C = 97 % of control

# compound `O=c1[nH]c(=O)c2cc3ccccc3nc2[nH]1` ; its T/C = 97 % of control

# compound `CCCCCCCCCCCCCCCC(=O)N(CC)CC` ; its T/C = 95 % of control

# compound `COC(=O)C1=C(O)CCCC=C1C(=O)O` ; its T/C = 103 % of control

# compound `CC1(C)C(C)(C)C1(F)Cl` ; its T/C = 118 % of control

# compound `Brc1cc(Br)c2c(c1)-c1ccccc1C2` ; its T/C = 96 % of control

# compound `COCCCNCC(=O)N1CCN(C(=O)CNCCCOC)CC1` ; its T/C = 95 % of control
